- TESTED_TARGET: UniProt P51449
- Sequence (P51449 1-497 isoform P51449-2): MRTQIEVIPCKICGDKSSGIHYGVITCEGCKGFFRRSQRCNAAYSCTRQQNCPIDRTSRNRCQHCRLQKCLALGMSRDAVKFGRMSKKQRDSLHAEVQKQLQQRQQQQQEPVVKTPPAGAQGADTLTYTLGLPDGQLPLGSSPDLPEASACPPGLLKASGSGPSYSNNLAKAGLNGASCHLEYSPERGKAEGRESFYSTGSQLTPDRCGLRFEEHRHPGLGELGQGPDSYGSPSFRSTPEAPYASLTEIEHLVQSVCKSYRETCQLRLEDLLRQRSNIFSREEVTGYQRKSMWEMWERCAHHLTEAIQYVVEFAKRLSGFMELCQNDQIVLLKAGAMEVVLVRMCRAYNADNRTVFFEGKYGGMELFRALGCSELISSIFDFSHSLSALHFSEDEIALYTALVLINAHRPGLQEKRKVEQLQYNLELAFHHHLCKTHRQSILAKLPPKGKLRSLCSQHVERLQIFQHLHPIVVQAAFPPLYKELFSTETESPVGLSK
- ASSAY_OVERVIEW: RORγt binding test using fluorescent-labeled synthetic ligand (TR-FRET)
- COND: read-out: Binding inhibitory rate of fluorescent-labeled synthetic ligand to RORγt at test compound 1 μM (%)
QUANTITY: inhibition at 1 µM (%)

- SMILES_CODE: "COc1ccc2c(n1)CCN(C(=O)Cc1cc(O)no1)[C@H]2C(=O)Nc1cc(F)c2c(c1)CCC2(C)C"
  OBSERVED_MEASUREMENT: 102
- SMILES_CODE: "C[Si](C)(C)c1c(F)cc(NC(=O)[C@H]2c3ccc(S(C)(=O)=O)cc3CCN2C(=O)CCCC(=O)O)cc1F"
  OBSERVED_MEASUREMENT: 102
- SMILES_CODE: "C[Si](C)(C)c1ccc(NC(=O)[C@H]2c3ccc(OC(F)F)cc3CCN2C(=O)CCCC(=O)O)cc1F"
  OBSERVED_MEASUREMENT: 101
- SMILES_CODE: "COc1ccc2c(c1)CCN(C(=O)Cc1cc(O)no1)[C@H]2C(=O)Nc1ccc([Si](C)(C)C)c(C#N)c1"
  OBSERVED_MEASUREMENT: 102
- SMILES_CODE: "COc1ccc2c(c1)CCN(C(=O)[C@@H](O)CCC(=O)O)[C@H]2C(=O)Nc1cc(F)c([Si](C)(C)C)c(F)c1"
  OBSERVED_MEASUREMENT: 101
- SMILES_CODE: "COCC(C)(C)c1ccc(NC(=O)[C@H]2c3ccc(OC)cc3CCN2C(=O)Cc2cc(O)no2)cc1F"
  OBSERVED_MEASUREMENT: 102
- SMILES_CODE: "CCOc1ccc2c(c1)CCN(C(=O)Cc1cc(O)no1)[C@H]2C(=O)Nc1cc(F)c(C(C)(C)COCC(F)F)c(F)c1"
  OBSERVED_MEASUREMENT: 101

###

- TESTED_TARGET: RORγt (Homo sapiens, UniProt P51449)
- Sequence (P51449 1-497 isoform P51449-2): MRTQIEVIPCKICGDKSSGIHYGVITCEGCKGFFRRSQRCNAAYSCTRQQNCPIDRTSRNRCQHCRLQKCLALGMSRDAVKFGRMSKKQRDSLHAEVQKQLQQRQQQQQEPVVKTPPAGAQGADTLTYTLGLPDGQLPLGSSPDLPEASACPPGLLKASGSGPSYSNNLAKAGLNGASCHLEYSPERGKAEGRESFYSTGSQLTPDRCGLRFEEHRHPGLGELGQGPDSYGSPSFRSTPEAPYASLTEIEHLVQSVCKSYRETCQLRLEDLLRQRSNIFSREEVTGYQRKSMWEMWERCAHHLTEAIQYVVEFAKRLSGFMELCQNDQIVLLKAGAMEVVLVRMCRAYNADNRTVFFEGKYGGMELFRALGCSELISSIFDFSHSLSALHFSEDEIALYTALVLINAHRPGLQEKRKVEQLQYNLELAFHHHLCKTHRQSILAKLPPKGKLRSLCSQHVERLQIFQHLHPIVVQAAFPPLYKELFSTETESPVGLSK
- ASSAY_OVERVIEW: RORγt binding test using fluorescent-labeled cholesterol (TR-FRET)
- COND: read-out: Binding inhibitory rate of fluorescent-labeled cholesterol to RORγt at test compound 1 μM (%)
Examples of molecules with documented inhibition at 1 µM follow.

- SMILES_CODE: "CC[Si](C)(C)c1c(F)cc(NC(=O)[C@H]2c3ccc(COC)nc3CCN2C(=O)c2cc(O)no2)cc1F"
  inhibition at 1 µM: "101%"
- SMILES_CODE: "COc1ccc2c(n1)CCN(C(=O)c1cc(O)no1)[C@H]2C(=O)Nc1ccc([Si](C)(C)C)c(F)c1"
  inhibition at 1 µM: "102%"
- SMILES_CODE: "COc1ccc2c(n1)CCN(C(=O)c1cc(O)no1)[C@H]2C(=O)Nc1cc(F)c([Si](C)(C)C)c(F)c1"
  inhibition at 1 µM: "102%"
- SMILES_CODE: "CCOc1ccc2c(c1)CCN(C(=O)Cc1cc(O)no1)[C@H]2C(=O)Nc1cc(F)c2c(c1)CCC2(C)C"
  inhibition at 1 µM: "102%"
- SMILES_CODE: "COc1ccc2c(c1)CCN(C(=O)c1cc(O)no1)[C@H]2C(=O)Nc1ccc(C(C)(C)C)c(F)c1"
  inhibition at 1 µM: "100%"
- SMILES_CODE: "CCOc1ccc2c(c1)CCN(C(=O)Cc1cc(O)no1)[C@H]2C(=O)Nc1cc(F)c(C(C)(C)COC)c(F)c1"
  inhibition at 1 µM: "101%"
- SMILES_CODE: "COCc1ccc2c(c1)CCN(C(=O)Cc1cc(O)no1)[C@H]2C(=O)Nc1ccc([Si](C)(C)C)c(F)c1"
  inhibition at 1 µM: "102%"

###

- TESTED_TARGET: RORγt (Homo sapiens)
- ASSAY_OVERVIEW: RORγt binding test using fluorescent-labeled synthetic ligand (TR-FRET)
- COND: read-out: Binding inhibitory rate of fluorescent-labeled synthetic ligand to RORγt at test compound 1 μM (%)

- SMILES_CODE: "COCc1ccc2c(c1)CCN(C(=O)CCCC(=O)O)[C@H]2C(=O)Nc1cc(F)c([Si](C)(C)C)c(F)c1"
  TESTED_TARGET: "RORγt (Homo sapiens)"
  UNIT_ABBREV: "%"
  inhibition at 1 µM: 102
- SMILES_CODE: "CC1(C)CCc2cc(NC(=O)[C@H]3c4ccc5c(c4CCN3C(=O)CCCC(=O)O)OCO5)cc(F)c21"
  TESTED_TARGET: "RORγt (Homo sapiens)"
  UNIT_ABBREV: "%"
  inhibition at 1 µM: 100
- SMILES_CODE: "CCOc1ccc2c(c1)CCN(C(=O)[C@H](O)CCC(=O)O)[C@H]2C(=O)Nc1cc(F)c([Si](C)(C)C)c(F)c1"
  TESTED_TARGET: "RORγt (Homo sapiens)"
  UNIT_ABBREV: "%"
  inhibition at 1 µM: 102
- SMILES_CODE: "CCOc1ccc2c(n1)CCN(C(=O)CCCC(=O)O)[C@H]2C(=O)Nc1ccc([Si](C)(C)C)c(F)c1"
  TESTED_TARGET: "RORγt (Homo sapiens)"
  UNIT_ABBREV: "%"
  inhibition at 1 µM: 101
- SMILES_CODE: "CCOc1ccc2c(c1)CCN(C(=O)Cc1cc(O)no1)[C@H]2C(=O)Nc1cc(F)c(C(C)(C)COCCOC)c(F)c1"
  TESTED_TARGET: "RORγt (Homo sapiens)"
  UNIT_ABBREV: "%"
  inhibition at 1 µM: 101
- SMILES_CODE: "COc1ccc2c(c1)CCN(C(=O)Cc1cc(O)no1)[C@H]2C(=O)Nc1cc(F)c2c(c1)CCC2(C)C"
  TESTED_TARGET: "RORγt (Homo sapiens)"
  UNIT_ABBREV: "%"
  inhibition at 1 µM: 102
- SMILES_CODE: "CCOc1ccc2c(c1)CCN(C(=O)CCCCC(=O)O)[C@H]2C(=O)Nc1cc(F)c2c(c1)CCC2(C)C"
  TESTED_TARGET: "RORγt (Homo sapiens)"
  UNIT_ABBREV: "%"
  inhibition at 1 µM: 101
- SMILES_CODE: "CCOc1ccc2c(c1)CCN(C(=O)c1cc(O)no1)[C@H]2C(=O)Nc1cc(F)c(C(C)(C)COCC(F)F)c(F)c1"
  TESTED_TARGET: "RORγt (Homo sapiens)"
  UNIT_ABBREV: "%"
  inhibition at 1 µM: 102
- SMILES_CODE: "CCOc1ccc2c(n1)CCN(C(=O)Cc1cc(O)no1)[C@H]2C(=O)Nc1ccc([Si](C)(C)C)c(F)c1"
  TESTED_TARGET: "RORγt (Homo sapiens)"
  UNIT_ABBREV: "%"
  inhibition at 1 µM: 102
- SMILES_CODE: "COc1ccc2c(n1)CCN(C(=O)N1CC(CC(=O)O)C1)[C@H]2C(=O)Nc1cc(F)c([Si](C)(C)C)c(F)c1"
  TESTED_TARGET: "RORγt (Homo sapiens)"
  UNIT_ABBREV: "%"
  inhibition at 1 µM: 102
- SMILES_CODE: "COc1ccc2c(c1)CCN(C(=O)c1cc(O)no1)[C@H]2C(=O)Nc1ccc([Si](C)(C)C)c(F)c1"
  TESTED_TARGET: "RORγt (Homo sapiens)"
  UNIT_ABBREV: "%"
  inhibition at 1 µM: 101
- SMILES_CODE: "COCc1ccc2c(c1)CCN(C(=O)c1cc(O)no1)[C@H]2C(=O)Nc1cc(F)c([Si](C)(C)C)c(F)c1"
  TESTED_TARGET: "RORγt (Homo sapiens)"
  UNIT_ABBREV: "%"
  inhibition at 1 µM: 101
- SMILES_CODE: "COCc1ccc2c(n1)CCN(C(=O)c1cc(O)no1)[C@H]2C(=O)Nc1cc(F)c([Si](C)(C)C)c(F)c1"
  TESTED_TARGET: "RORγt (Homo sapiens)"
  UNIT_ABBREV: "%"
  inhibition at 1 µM: 102
- SMILES_CODE: "COc1ccc2c(c1)CCN(C(=O)Cc1cc(O)no1)[C@H]2C(=O)Nc1ccc([Si](C)(C)C)c(F)c1"
  TESTED_TARGET: "RORγt (Homo sapiens)"
  UNIT_ABBREV: "%"
  inhibition at 1 µM: 102

Provenance of the data: patent US10053468B2
